These entries and their values trace back to patent US12214059B2.

# measurement.description: Ex-vivo mouse plasma stability study of ^177Lu-labeled compounds
# Type: in vitro ADME
# assay.context: 37° C., 4 h
Listing: % Remaining 4 h of selected compounds
Write the number in % without appending the unit.

Would you mind telling me what % Remaining 4 h value was observed for O=C(O)CC[C@H](NC(=O)N[C@@H](CCCCNC(=O)[C@H](Cc1ccc2ccccc2c1)NC(=O)[C@H]1CC[C@H](CNC(=O)[C@H](CCCCNC(=O)CN2CCN(CC(=O)O)CCN(CC(=O)O)CCN(CC(=O)O)CC2)NC(=O)[C@H](CCC(=O)O)NC(=O)CCCc2ccc(I)cc2)CC1)C(=O)O)C(=O)O [Example C-2, 4pIBA-Glu-Lys(DOTA)-Trx-2NaI-eKuE, reference compound] ? 100

Try this compound next: O=C(O)CC[C@H](NC(=O)N[C@@H](CCCCNC(=O)[C@H](Cc1ccc2ccccc2c1)NC(=O)[C@H]1CC[C@H](CNC(=O)[C@H](CCCCNC(=O)CCCOC(=O)CNC(=O)CN2CCN(CC(=O)O)CCN(CC(=O)O)CCN(CC(=O)O)CC2)NC(=O)[C@H](CCC(=O)O)NC(=O)CCCc2ccc(I)cc2)CC1)C(=O)O)C(=O)O [Example I-3, 4pIBA-Glu-Lys(-ESL1-DOTA)-Trx-2NaI-eKuE] 54.8

Next compound, please.
Would you mind telling me what % Remaining 4 h value was observed for O=C(O)CC[C@H](NC(=O)N[C@@H](CCCCNC(=O)[C@H](Cc1ccc2ccccc2c1)NC(=O)C1CCC(CNC(=O)CN2CCN(CC(=O)O)CCN(CC(=O)O)CCN(CC(=O)O)CC2)CC1)C(=O)O)C(=O)O (stereo partly drawn) [Example C-1, reference compound] ? 100

---

# measurement.description: Ex-vivo mouse plasma stability study of ^177Lu-labeled compounds
# Type: in vitro ADME
# assay.context: 37° C., 1 h
# Description: Plasma Stability Study (Mouse and Human) Mouse blood was collected via cardiac puncture of the left ventricle. Blood was placed into heparin-coated microfuge tubes and then centrifuged at 3500 rpm for 10 min to separate plasma for stability studies. Human plasma was purchased directly. At each time point (0, 1, 2, 4, 24, 48 72 h), an aliquot of 25 μL sample was taken and mixed with 100 μL methanol containing 1% formic acid, vertex for 30-60 sec, then centrifuged at 20000 rpm for 10 min. […]
measure.name: % Remaining 1 h (%)
Write the number in % without appending the unit.

Would you mind telling me what % Remaining 1 h value was observed for `O=C(O)CC[C@H](NC(=O)N[C@@H](CCCCNC(=O)[C@H](Cc1ccc2ccccc2c1)NC(=O)[C@H]1CC[C@H](CNC(=O)[C@H](CCCCNC(=O)CN2CCN(CC(=O)O)CCN(CC(=O)O)CCN(CC(=O)O)CC2)NC(=O)CCCOC(=O)CNC(=O)[C@H](CCC(=O)O)NC(=O)CCCc2ccc(I)cc2)CC1)C(=O)O)C(=O)O` ? 95.6

---

# measurement.description: Ex-vivo mouse plasma stability study of ^177Lu-labeled compounds
# Format: in vitro ADME
# assay.context: 37° C., 0 min
measure.name: % Remaining 0 min (%)
Write the number in % without appending the unit.

Would you mind telling me what % Remaining 0 min value was observed for O=C(O)CC[C@H](NC(=O)N[C@@H](CCCCNC(=O)[C@H](Cc1ccc2ccccc2c1)NC(=O)[C@H]1CC[C@H](CNC(=O)[C@H](CCCCNC(=O)CCCOC(=O)CNC(=O)CN2CCN(CC(=O)O)CCN(CC(=O)O)CCN(CC(=O)O)CC2)NC(=O)[C@H](CCC(=O)O)NC(=O)CCCc2ccc(I)cc2)CC1)C(=O)O)C(=O)O [Example I-3, 4pIBA-Glu-Lys(-ESL1-DOTA)-Trx-2NaI-eKuE] ? 100

Continuing:
Would you mind telling me what % Remaining 0 min value was observed for `O=C(O)CC[C@H](NC(=O)N[C@@H](CCCCNC(=O)[C@H](Cc1ccc2ccccc2c1)NC(=O)[C@H]1CC[C@H](CNC(=O)[C@H](CCCCNC(=O)CN2CCN(CC(=O)O)CCN(CC(=O)O)CCN(CC(=O)O)CC2)NC(=O)CCCOC(=O)CNC(=O)[C@H](CCC(=O)O)NC(=O)CCCc2ccc(I)cc2)CC1)C(=O)O)C(=O)O` ? 100
